System: MOLT-4
Assay: Anticancer activity against human MOLT4 cells assessed as cell growth promotion at 10^-5 M after 48 hrs by SRB assay relative to control
Assay type: functional
measured-property: Activity (%)
Response body: numeric value in %, unit text excluded.

| smi | measured-property | units-of-measure | reported-measurement |
| --- | --- | --- | --- |
| O=C(Nc1ccccc1C(=O)Nc1ccc(/C=C/c2ccc(O)cc2)cc1)c1ccccc1 | Activity | % | 44.21 |
| Oc1ccccc1/C=C/c1nc2ccccc2nc1SCc1nc2ccccc2[nH]1 | Activity | % | 57.51 |
| COc1cc(/C=C/c2ccc(NC(=O)c3ccccc3NC(=O)c3ccccc3)cc2)ccc1O | Activity | % | 86.81 |
| O=c1c2ccccc2nc(-c2ccco2)n1/N=C/c1ccccc1Cl | Activity | % | 99.12 |
| O=C(Nc1ccccc1C(=O)Nc1ccc(/C=C/c2ccc(Cl)cc2)cc1)c1ccccc1 | Activity | % | 59.17 |

Fill in Activity for record `N#Cc1ccc(/C=C/c2ccc(NC(=O)c3ccccc3NC(=O)c3ccco3)cc2)cc1`
99.1

Input `O=C(Nc1ccccc1C(=O)Nc1ccc(/C=C/C=C/c2ccccc2)cc1)c1ccccc1` , output reported Activity.
77.32

* * *

Test system: A498
Experiment: Anticancer activity against human A498 cells assessed as cell growth promotion at 10^-5 M after 48 hrs by SRB assay relative to control
Assay type: functional
measured-property: Activity (%)
The response must be a number in % with no trailing unit.

| smi | measured-property | reported-measurement |
| --- | --- | --- |
| C(=C\c1nc2ccccc2nc1SCc1nc2ccccc2[nH]1)/c1ccccc1 | Activity | 71.11 |
| CN(C)c1ccc(/C=C/c2nc3ccccc3nc2SCc2nc3ccccc3[nH]2)cc1 | Activity | 88.48 |

Okay, next one:
Tell me its Activity given `N#Cc1ccc(/C=C/c2ccc(NC(=O)c3ccccc3NC(=O)c3ccco3)cc2)cc1` as the entry.
94.62

* * *

Parameter: Activity. Scope: all listed entries.
Test system: HOP-62
Experiment: Anticancer activity against human HOP62 cells assessed as cell growth promotion at 10^-5 M after 48 hrs by SRB assay relative to control
Assay type: functional
Hi! Could you send only the number? It should be in %, unit omitted.

| smi | units-of-measure | Activity |
| --- | --- | --- |
| O=c1c2ccccc2nc(-c2ccco2)n1/N=C/c1ccccc1Cl | % | -34.84 |
| COc1ccc(OC)c(/C=C/c2nc3ccccc3nc2SCc2nc3ccccc3[nH]2)c1 | % | 87.33 |

# evaluate next
Using known records, supply Activity for `O=C(O)c1ccc(-n2c(-c3ccco3)nc3ccccc3c2=O)cc1`
107.05

* * *

Test system: HCC 2998
Test: Anticancer activity against human HCC2998 cells assessed as cell growth promotion at 10^-5 M after 48 hrs by SRB assay relative to control
Assay type: functional
The reader will find reported Activity values listed item by item below.
Report as a plain number; the unit % is understood.

| smi | assay-system | Activity / % |
| --- | --- | --- |
| O=c1c2ccccc2nc(-c2ccco2)n1/N=C/c1ccccc1Cl | HCC 2998 | 34.89 |
| CN(C)c1ccc(/C=C/c2nc3ccccc3nc2SCc2nc3ccccc3[nH]2)cc1 | HCC 2998 | 90.32 |
| N#Cc1ccc(/C=C/c2ccc(NC(=O)c3ccccc3NC(=O)c3ccco3)cc2)cc1 | HCC 2998 | 105 |

Note Activity for the molecule shown: `O=C(Nc1ccccc1C(=O)Nc1ccc(/C=C/c2ccc(Cl)cc2)cc1)c1ccco1`
96.83

Tell me Activity reported for `NS(=O)(=O)c1ccc(NC(=O)c2ccccc2NC(=O)c2ccco2)cc1`
103.3

Entry `C(=C\c1nc2ccccc2nc1SCc1nc2ccccc2[nH]1)/c1ccccc1` needs its Activity filled in; supply it.
86.35

Read the entry `O=C(Nc1ccccc1C(=O)Nc1ccc(/C=C/C=C/c2ccccc2)cc1)c1ccccc1` and write its reported Activity.
93.69

Complete the entry with Activity for `Oc1ccccc1/C=C/c1nc2ccccc2nc1SCc1nc2ccccc2[nH]1`
102

Identify the reported Activity for the following entry. `Oc1ccc(/C=C/c2nc3ccccc3nc2SCc2nc3ccccc3[nH]2)cc1`
123

Values were extracted from ChEMBL document CHEMBL1781959.
